Biological target: T1, 4H1842-AA
T1 chain: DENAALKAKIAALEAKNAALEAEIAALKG
Test: two-hybrid library CCmax;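 note: natural log of median RNA to DNA barcode read ratio; higher means stronger binding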
Conditions: mean of both orientations
Checkbox rule: interaction score lower than -1 = 1 (yes); interaction score not lower than -1 = 0 (no).

Previously resolved entries follow.
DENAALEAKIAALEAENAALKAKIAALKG [4H1310-AA] | 0 (no)
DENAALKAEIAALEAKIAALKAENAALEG [4H1579-AA] | 1 (yes)
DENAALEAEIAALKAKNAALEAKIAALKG [4H1142-AA] | 0 (no)

Determine if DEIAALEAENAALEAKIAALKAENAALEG [4H171-AA] shows interaction score strictly lower than -1.
1 (yes)

Determine if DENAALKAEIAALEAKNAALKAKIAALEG [4H1597-AA] shows interaction score strictly lower than -1.
0 (no)
